molecular target: T1, Cynomolgus monkey glycophorin A on Cynomolgus monkey red blood cells or red blood cell membranes (Cynomolgus monkey); experiment: Fab on intact cyno RBC, unbound Fab by ELISA; 5 min after 200-fold dilution
T1 construct: whole, on cells; also called Cyno RBC; Cynomolgus monkey RBC membranes
Metric name: percentage of input antibody bound (%)
Entry rule: numbers only, all in %.

Data request: May I ask what percentage of input antibody bound has been recorded for TPP-7793, affinity matured 6C12 Fab (Fab, V domains shown, Tested as Fab) VH: EVQLVQSGAEVKKPGASVKVSCKASGYTFTRYTIHWVRQAPGQGLEWMGYINPSSGYTRYNPKFKGRVTMTRDKSTSTAYMELRSLRSDDTAVYYCWTGTRDYWGQGTTVTVSS VL: DIQLTQSPSFLSASVGDRVTITCRASSSVSYIYWFQQKPGKAPKLLIYATSTLQSGVPSRFSGSGSGTEYTLTISSLQPEDFATYYCHQRNSFPYTFGQGTKLEIK ?
Data returned: 58

Data request: May I ask what percentage of input antibody bound has been recorded for TPP-7796, affinity matured 6C12 Fab (Fab, V domains shown, Tested as Fab) VH: EVQLVQSGAEVKKPGASVKVSCKASGYTFTTYTIHWVRQAPGQGLEWMGYINPKSGWTRYNPKFKGRVTMTRDKSTSTAYMELRSLRSDDTAVYYCQTGTRDYWGQGTTVTVSS VL: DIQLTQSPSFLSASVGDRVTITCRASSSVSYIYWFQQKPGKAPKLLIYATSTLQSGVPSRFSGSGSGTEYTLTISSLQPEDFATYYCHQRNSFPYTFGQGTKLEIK ?
Data returned: 43

Data request: May I ask what percentage of input antibody bound has been recorded for TPP-7792, affinity matured 6C12 Fab (Fab, V domains shown, Tested as Fab with a 6xHIS tag) VH: EVQLVQSGAEVKKPGASVKVSCKASGYTFTTYAIHWVRQAPGQGLEWMGYINPSSGYTRYNPKFKGRVTMTRDKSTSTAYMELRSLRSDDTAVYYCWTGTRDYWGQGTTVTVSS VL: DIQLTQSPSFLSASVGDRVTITCRASSSVRYIYWFQQKPGKAPKLLIYATSFRQSGVPSRFSGSGSGTEYTLTISSLQPEDFATYYCHQRNSFPYTFGQGTKLEIK ?
Data returned: 94

Data request: May I ask what percentage of input antibody bound has been recorded for TPP-7797, affinity matured 6C12 Fab (Fab, V domains shown, Tested as Fab) VH: EVQLVQSGAEVKKPGASVKVSCKASGYTFTTYTIHWVRQAPGQGLEWMGYINPSSGYTRYNPKFKGRVTMTRDKSTSTAYMELRSLRSDDTAVYYCWTGRRDYWGQGTTVTVSS VL: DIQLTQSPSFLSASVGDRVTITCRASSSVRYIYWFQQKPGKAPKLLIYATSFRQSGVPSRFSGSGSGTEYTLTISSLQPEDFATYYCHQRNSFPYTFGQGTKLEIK ?
Data returned: 66

Data request: May I ask what percentage of input antibody bound has been recorded for TPP-7795, affinity matured 6C12 Fab (Fab, V domains shown, Tested as Fab) VH: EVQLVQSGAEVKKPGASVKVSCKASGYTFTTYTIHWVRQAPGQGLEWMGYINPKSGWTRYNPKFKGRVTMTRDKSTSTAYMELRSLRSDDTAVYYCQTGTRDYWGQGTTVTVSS VL: DIQLTQSPSFLSASVGDRVTITCRASSSVSYIYWFQQKPGKAPKLLIYATSFLQSGVPSRFSGSGSGTEYTLTISSLQPEDFATYYCHQRNSFPYTFGQGTKLEIK ?
Data returned: 51

Data request: May I ask what percentage of input antibody bound has been recorded for TPP-7783, affinity matured 6C12 Fab (Fab, V domains shown, Tested as Fab) VH: EVQLVQSGAEVKKPGASVKVSCKASGYTFTTYAIHWVRQAPGQGLEWMGYINPSSGYTRYNPKFKHRVTMTRDKSTSTAYMELRSLRSDDTAVYYCWTGTRDYWGQGTTVTVSS VL: DIQLTQSPSFLSASVGDRVTITCRASSSVRYIYWFQQKPGKAPKLLIYATSFRRSGVPSRFSGSGSGTEYTLTISSLQPEDFATYYCHQRNSFPYTFGQGTKLEIK ?
Data returned: 62

Data request: May I ask what percentage of input antibody bound has been recorded for TPP-7794, affinity matured 6C12 Fab (Fab, V domains shown, Tested as Fab) VH: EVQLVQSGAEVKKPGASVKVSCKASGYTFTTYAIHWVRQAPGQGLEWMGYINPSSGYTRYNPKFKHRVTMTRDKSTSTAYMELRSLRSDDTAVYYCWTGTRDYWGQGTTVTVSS VL: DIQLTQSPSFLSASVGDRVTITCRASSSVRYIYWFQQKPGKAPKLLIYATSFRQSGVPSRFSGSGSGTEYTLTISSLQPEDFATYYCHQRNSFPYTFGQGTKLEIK ?
Data returned: 66

Data request: May I ask what percentage of input antibody bound has been recorded for TPP-7778, affinity matured 6C12 Fab (Fab, V domains shown, Tested as Fab) VH: EVQLVQSGAEVKKPGASVKVSCKASGYTFTTYAIHWVRQAPGQGLEWMGYINPSSGYTRYNPKFKHRVTMTRDKSTSTAYMELRSLRSDDTAVYYCQTGTRDYWGQGTTVTVSS VL: DIQLTQSPSFLSASVGDRVTITCRASSSVRYIYWFQQKPGKAPKLLIYATSTLQSGVPSRFSGSGSGTEYTLTISSLQPEDFATYYCHQRNSFPYTFGQGTKLEIK ?
Data returned: 54

Data request: May I ask what percentage of input antibody bound has been recorded for TPP-7790, affinity matured 6C12 Fab (Fab, V domains shown, Tested as Fab with a 6xHIS tag) VH: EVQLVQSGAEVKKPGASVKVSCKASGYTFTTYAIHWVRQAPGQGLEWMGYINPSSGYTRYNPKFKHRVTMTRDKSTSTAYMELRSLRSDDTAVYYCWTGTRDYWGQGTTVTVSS VL: DIQLTQSPSFLSASVGDRVTITCRASSSVRYIYWFQQKPGKAPKLLIYATSFLQSGVPSRFSGSGSGTEYTLTISSLQPEDFATYYCHQRNSFPYTFGQGTKLEIK ?
Data returned: 90

Data request: May I ask what percentage of input antibody bound has been recorded for TPP-7781, affinity matured 6C12 Fab (Fab, V domains shown, Tested as Fab) VH: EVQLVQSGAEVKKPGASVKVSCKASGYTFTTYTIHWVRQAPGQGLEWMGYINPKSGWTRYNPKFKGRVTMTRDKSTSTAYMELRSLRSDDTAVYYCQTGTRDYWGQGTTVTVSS VL: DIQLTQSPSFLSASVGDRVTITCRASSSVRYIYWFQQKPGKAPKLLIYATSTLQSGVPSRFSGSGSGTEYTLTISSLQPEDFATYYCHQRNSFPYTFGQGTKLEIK ?
Data returned: 34

Data request: May I ask what percentage of input antibody bound has been recorded for TPP-7782, affinity matured 6C12 Fab (Fab, V domains shown, Tested as Fab) VH: EVQLVQSGAEVKKPGASVKVSCKASGYTFTTYTIHWVRQAPGQGLEWMGYINPSSGYTRYNPKFKGRVTMTRDKSTSTAYMELRSLRSDDTAVYYCQTGTRDYWGQGTTVTVSS VL: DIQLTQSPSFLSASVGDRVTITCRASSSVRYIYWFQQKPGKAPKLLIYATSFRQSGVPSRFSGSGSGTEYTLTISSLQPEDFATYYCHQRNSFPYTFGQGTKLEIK ?
Data returned: 68

Entry source: patent US20190359687A1
